test system: MOLM14; test: cell viability relative to vehicle control; higher = less cytotoxic; details: 10 µM; SRSF2 genotype: SRSF2 P95H/wt;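 also: after 48 h exposure read by CellTiter-Glo luminescence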
quantity: cell viability (%)
One number for each entry, in %.

Some solved cases for reference:
[[record]]
compound = "NC(=O)c1cc(F)cc2c1C(=O)N(C1CCN(C3CCC(F)(F)CC3)CC1)C2"
quantity = "cell viability"
scale_unit = "%"
result_value = 82.6

[[record]]
compound = "CC[C@H]1OC(=O)[C@@](C)(F)C(=O)[C@H](C)[C@@H](O[C@@H]2O[C@H](C)C[C@H](N(C)C)[C@H]2O)[C@](C)(OC)C[C@@H](C)C(=O)[C@H](C)[C@H]2N(CCCCn3cc(-c4cccc(N)c4)nn3)C(=O)O[C@]12C [Solithromycin]"
quantity = "cell viability"
scale_unit = "%"
result_value = 89.4

[[record]]
compound = "O=C(/C=C/c1ccc(O)c(O)c1)O[C@@H]1C[C@](O)(C(=O)O)C[C@@H](O)[C@H]1O [Chlorogenic acid]"
quantity = "cell viability"
scale_unit = "%"
result_value = 104

[[record]]
compound = "CN(C)CCNC(=O)c1cccn2c(=O)c3cc4ccccc4cc3nc12"
quantity = "cell viability"
scale_unit = "%"
result_value = 0.3

[[record]]
compound = "Cc1onc(-c2c(Cl)cccc2Cl)c1C(=O)N[C@@H]1C(=O)N2[C@@H]1SC(C)(C)[C@@H]2C(=O)O [Dicloxacillin Sodium]"
quantity = "cell viability"
scale_unit = "%"
result_value = 98.7

[[record]]
compound = "CC(C)(C)S(=O)(=O)c1ccc2nccc(Nc3n[nH]c4ccc(F)cc34)c2c1"
quantity = "cell viability"
scale_unit = "%"
result_value = 88


Give recorded cell viability with MOLM14 for the following compound: COC(=O)Nc1nc2cc(Sc3ccccc3)ccc2[nH]1 [Fenbendazole (Panacur)]
9.32

###

system: MOLM14; experiment: cell viability relative to vehicle control; higher = less cytotoxic; details: 10 µM; SRSF2 genotype: SRSF2 P95H/wt;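 also: after 48 h exposure read by CellTiter-Glo luminescence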
Record form. Attribute: cell viability. Fill in for each entry.

Some solved cases for reference:
[[record]]
molecule = "OC1OC[C@@H](O)[C@@H](O)[C@@H]1O (stereo partly drawn) [D(-)-Arabinose]"
system_under_test = "MOLM14"
result_value = "100%"

[[record]]
molecule = "Oc1cc(O)cc(/C=C/c2ccc(O)c(O)c2)c1"
system_under_test = "MOLM14"
result_value = "71.8%"

[[record]]
molecule = "COC(=O)c1ccc2c(c1)[nH]c1ncnc(NCCCN3CCCCC3)c12"
system_under_test = "MOLM14"
result_value = "23.7%"

[[record]]
molecule = "NCCCC[C@@H]1NC(=O)[C@@H](Cc2ccc(O)cc2)NC(=O)[C@H](CC(=O)O)NC(=O)CNC(=O)[C@H](CCCN=C(N)N)NC1=O [Cyclo(RGDyK)]"
system_under_test = "MOLM14"
result_value = "91.3%"

[[record]]
molecule = "CN1CC[C@H](c2c(O)cc(O)c3c(=O)cc(-c4ccccc4Cl)oc23)[C@H](O)C1"
system_under_test = "MOLM14"
result_value = "3.1%"


Consider the following items and state reported cell viability for each.
1. Cn1c(=O)c2c(ncn2CC(O)CO)n(C)c1=O (centres undefined)
2. COc1cccc(OC)c1C(=O)OCc1cc(O)ccc1O[C@@H]1O[C@H](CO)[C@@H](O)[C@H](O)[C@H]1O [Curculigoside]
3. N[C@@H](Cc1cc(I)c(O)c(I)c1)C(=O)O [3,5-Diiodotyrosine Dihydrate]
4. C[C@@H](Nc1cc(F)cc(F)c1)c1cc(C(=O)N(C)C)cc2c(=O)cc(N3CCOCC3)oc12
5. O=C([O-])c1ccccc1O.[Na+] [Sodium salicylate]

["97.8%", "105%", "96.6%", "42.3%", "97%"]

Consider the following items and state reported cell viability for each.
1. CC(/C=C1\SC(=S)N(CC(=O)O)C1=O)=C\c1ccccc1
2. COC(=O)c1c2c(c3ccccc3c1O)OC(C)(C)C=C2
3. O=C(O)C(=O)O
4. Nc1nc2[nH]cnc2c(=S)[nH]1
5. C=CC(=O)Nc1cc2c(Nc3ccc(F)c(Cl)c3)ncnc2cc1OCCCN1CCOCC1

["106%", "2.68%", "95.2%", "35.2%", "12.8%"]

Consider the following items and state reported cell viability for each.
1. CN(C)/N=N/c1[nH]cnc1C(N)=O
2. Cc1ccc(Cl)cc1N(CC(=O)Nc1c(F)cccc1F)S(C)(=O)=O

1: 97.6%; 2: 102%

Ref: the supplement of paper PMC10981050
